# Tested on: Staphylococcus aureus (ATCC 25923)
# assay-text: Growth in liquid media in presence of test compound
# Assay type: cell-based
# run-conditions: 5 mg/L
property-name: Growth in the presence of test compound, S. aureus

INSERT INTO assay_data (molecule, result_value) VALUES
  ('Cl.N[C@@H](Cc1ccccc1)C(=O)NC[C@@H](Cc1ccc(F)cc1)B(O)O [Compound 50]', '+'),
  ('CC1(C)C2CC3OB([C@@H](CNC(=O)[C@@H](N)CCCNC(=N)N)Cc4ccccc4)O[C@]3(C)C1C2 (stereo partly shown) [Compound 11]', '+'),
  ('Cl.Cl.NCCCC[C@@H](N)C(=O)NC[C@@H](Cc1ccc(OC(F)(F)F)cc1)B(O)O [Compound 43]', '+'),
  ('CC1(C)C2CC3OB(CC(Cc4ccccc4)NC(=O)C(N)CCCNC(=N)N)OC3(C)C1C2 (stereo not shown) [Compound 4]', '+'),
  ('CC1(C)C2CC3OB(C(Cc4ccccc4)C(Cc4ccccc4)NC(=O)C(N)CCCCN)OC3(C)C1C2 (stereo not shown) [Compound 31]', '+');

### Prompt Field request: Growth in the presence of test compound, S. aureus | item: CC1(C)C2CC3OB([C@H](CNC(=O)[C@@H](N)Cc4ccccc4)Cc4ccccc4)O[C@@]3(C)C1C2 (stereo partly shown) [Compound 14]
### Response +

### Prompt Similarly, CC1(C)C2CC3OB(C(CNC(=O)C(N)CCCCN)Cc4ccc(OC(F)(F)F)cc4)OC3(C)C1C2.Cl.Cl (stereo not shown) [Compound 47] ?
### Response +
